These entries and their values trace back to patent US20120264735A1.

Biological target: c-Met kinase (recombinant c-Met) (Homo sapiens)
Construct: 0.27 nM recombinant c-Met
Experiment: In vitro kinase assay I (homogeneous time-resolved fluorescence tyrosine kinase assay)
Type: biochemical
pIC50: −log10 of the molar value.
A collection of compounds and their measured pIC50

// known answers, use as guide
>  <compound>
Cn1cc(-n2ccc(=O)c(Cc3cccc(-c4ncc(-c5ccc(C#N)nc5)cn4)c3)n2)cn1

>  <pIC50>
> 7.00

$$$$
>  <compound>
Cn1cc(-n2ccc(=O)c(Cc3cccc(-c4ncc(OCCc5cnoc5)cn4)c3)n2)cn1

>  <pIC50>
> 7.00

$$$$
>  <compound>
O=C(Nc1cccc(Cc2nn(-c3cc(F)c(F)c(F)c3)ccc2=O)c1)OCC1CCC1

>  <pIC50>
> 7.00

$$$$
>  <compound>
CCOC(=O)c1cnc(-c2cccc(Cc3nn(-c4cnn(C)c4)ccc3=O)c2)o1

>  <pIC50>
6.00 to 7.00

$$$$
>  <compound>
Cn1cc(-n2ccc(=O)c(Cc3cccc(-c4ncn(CCC5CCOC5)n4)c3)n2)cn1 (racemic)

>  <pIC50>
> 7.00

$$$$

Reported pIC50 ( CCOC(=O)Nc1cccc(Cc2nn(-c3cc(F)c(F)c(F)c3)ccc2=O)c1 ) = > 7.00

Reported pIC50 ( CCOCc1cnc(-c2cccc(Cc3nn(-c4cnn(C)c4)ccc3=O)c2)nc1 ) = > 7.00

Reported pIC50 ( O=C(Nc1cccc(Cc2nn(-c3cc(F)cc(F)c3)ccc2=O)c1)OCCCN1CCS(=O)(=O)CC1 ) = > 7.00

###

Target: c-Met kinase (recombinant c-Met) (Homo sapiens, UniProt P08581)
Construct: 0.27 nM recombinant c-Met
Sequence (P08581 25-1390): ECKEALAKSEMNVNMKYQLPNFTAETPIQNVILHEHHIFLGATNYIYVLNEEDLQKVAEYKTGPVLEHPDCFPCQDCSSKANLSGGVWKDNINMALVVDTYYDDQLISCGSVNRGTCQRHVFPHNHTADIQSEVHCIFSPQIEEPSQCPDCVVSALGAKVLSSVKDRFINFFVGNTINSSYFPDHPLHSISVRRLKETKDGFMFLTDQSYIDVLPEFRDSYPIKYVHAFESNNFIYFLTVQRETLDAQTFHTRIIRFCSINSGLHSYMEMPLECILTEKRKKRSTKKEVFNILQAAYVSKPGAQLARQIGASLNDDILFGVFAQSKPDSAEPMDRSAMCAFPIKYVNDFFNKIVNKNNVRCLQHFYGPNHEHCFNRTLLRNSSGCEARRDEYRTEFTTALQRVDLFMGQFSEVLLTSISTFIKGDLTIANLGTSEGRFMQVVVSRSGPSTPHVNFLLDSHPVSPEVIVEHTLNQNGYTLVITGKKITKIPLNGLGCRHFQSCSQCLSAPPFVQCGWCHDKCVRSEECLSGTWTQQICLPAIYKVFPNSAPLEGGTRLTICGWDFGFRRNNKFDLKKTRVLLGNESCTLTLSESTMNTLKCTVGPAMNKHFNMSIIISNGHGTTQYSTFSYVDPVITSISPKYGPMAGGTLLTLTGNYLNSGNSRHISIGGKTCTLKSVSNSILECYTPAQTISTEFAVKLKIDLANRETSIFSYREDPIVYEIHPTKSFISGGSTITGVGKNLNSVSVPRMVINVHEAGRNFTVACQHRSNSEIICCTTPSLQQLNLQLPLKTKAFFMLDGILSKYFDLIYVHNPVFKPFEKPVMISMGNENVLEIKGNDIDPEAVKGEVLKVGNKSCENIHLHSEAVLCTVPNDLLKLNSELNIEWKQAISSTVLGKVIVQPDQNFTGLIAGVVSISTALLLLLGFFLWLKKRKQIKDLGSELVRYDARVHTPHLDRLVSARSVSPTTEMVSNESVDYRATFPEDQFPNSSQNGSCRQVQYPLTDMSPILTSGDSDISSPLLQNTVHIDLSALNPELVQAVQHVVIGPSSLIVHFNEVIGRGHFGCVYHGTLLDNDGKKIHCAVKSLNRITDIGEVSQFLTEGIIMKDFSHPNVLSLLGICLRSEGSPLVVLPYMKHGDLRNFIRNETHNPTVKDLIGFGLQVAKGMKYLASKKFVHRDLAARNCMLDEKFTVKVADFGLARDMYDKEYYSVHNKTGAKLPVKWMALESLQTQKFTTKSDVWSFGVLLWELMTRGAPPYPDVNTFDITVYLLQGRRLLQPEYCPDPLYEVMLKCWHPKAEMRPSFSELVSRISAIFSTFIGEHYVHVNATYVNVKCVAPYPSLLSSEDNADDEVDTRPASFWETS
Assay: In vitro kinase assay I (homogeneous time-resolved fluorescence tyrosine kinase assay)
pIC50: −log10 of the molar value.
A collection of compounds and their measured pIC50

Reported pIC50 ( CCCOC(=O)Nc1cccc(Cc2nn(-c3cncc(F)c3)ccc2=O)c1 ) = > 7.00

###

A collection of compounds and their measured pIC50
Biological target: c-Met kinase (recombinant c-Met) (Homo sapiens, UniProt P08581)
Construct: 0.27 nM recombinant c-Met
Assay: In vitro kinase assay I (homogeneous time-resolved fluorescence tyrosine kinase assay)
pIC50: −log10 of the molar value.

// known answers, use as guide
>  <entrySmiles>
O=c1ccn(-c2ccc(F)c(F)c2)nc1Cc1cccc(-c2ncc(OC3COC3)cn2)c1

>  <targetOrSystem>
c-Met kinase (recombinant c-Met) (Homo sapiens, UniProt P08581)

>  <pIC50>
> 7.00

$$$$
>  <entrySmiles>
CC(=O)Nc1cccc(Cc2nn(-c3ccccc3)ccc2=O)c1

>  <targetOrSystem>
c-Met kinase (recombinant c-Met) (Homo sapiens, UniProt P08581)

>  <pIC50>
5.52 to 6.00

$$$$

# input for lookup
Reported pIC50 ( CC(C)Cc1cnc(-c2cccc(Cc3nn(-c4cnn(C)c4)ccc3=O)c2)nc1 ) = > 7.00

###

A collection of compounds and their measured IC50
Target: c-Met kinase (recombinant c-Met) (Homo sapiens, UniProt P08581)
Construct: 0.27 nM recombinant c-Met
Assay: In vitro kinase assay I (homogeneous time-resolved fluorescence tyrosine kinase assay)
Type: biochemical

// known answers, use as guide
>  <compound>
Cn1cc(-n2ccc(=O)c(Cc3cccc(-c4ncn(C5COC5)n4)c3)n2)cn1

>  <valueObserved>
100 to 1000 nM

$$$$
>  <compound>
Cn1cc(-n2ccc(=O)c(Cc3cccc(-c4ncc(C(=O)NCC5CCCO5)cn4)c3)n2)cn1 (racemic)

>  <valueObserved>
< 100 nM

$$$$
>  <compound>
Cn1cc(-n2ccc(=O)c(Cc3cccc(NC(=O)OCCC4CCOCC4)c3)n2)cn1

>  <valueObserved>
< 100 nM

$$$$
>  <compound>
Cn1cc(-n2ccc(=O)c(Cc3cccc(-c4ncc(-c5cnn(C6COC6)c5)cn4)c3)n2)cn1

>  <valueObserved>
< 100 nM

$$$$
>  <compound>
COCCOc1cnc(-c2cccc(Cc3nn(-c4ccc(C#N)cc4)ccc3=O)c2)nc1

>  <valueObserved>
< 100 nM

$$$$

Reported IC50 ( Cn1cc(-n2ccc(=O)c(Cc3cccc(-c4ncc(N5CCC(O)C5)cn4)c3)n2)cn1 (racemic) ) = < 100 nM

Reported IC50 ( Cn1cc(-n2ccc(=O)c(Cc3cccc(-c4ncc(Br)cn4)c3)n2)cn1 ) = < 100 nM

Reported IC50 ( CN(CCOC(=O)Nc1cccc(Cc2nn(-c3cc(F)c(F)c(F)c3)ccc2=O)c1)c1ccccc1 ) = < 100 nM

Reported IC50 ( CCn1cc(-n2ccc(=O)c(C(C)c3cccc(-c4ncc(OCC5CCCO5)cn4)c3)n2)cn1 (single isomer, unassigned) ) = < 100 nM

Reported IC50 ( COC(=O)CCCn1cc(-n2ccc(=O)c(Cc3cccc(NC(=O)OCC(C)C)c3)n2)cn1 ) = < 100 nM
